Test system: Plasmodium berghei
experiment: Screen against P. berghei liver stage (PbLuc), transformed with Luciferase, at 10uM
Type: functional, HepG2
condition label: tested at 10 uM
Out of some 69,000 compounds screened, about 8,600 (12%) showed an effect of 50% or more. For the sample, strong results were picked, then their nearest neighbours and some compounds at random.
assay endpoint: INHIBITION (%)

O=S(=O)(CCCS(=O)(=O)c1ccc2c(c1)OCCCO2)c1ccccc1 : -46.8
CC(C)CC(=O)N1C[C@@H]2CCN(c3ncccn3)C[C@@H]2C1 : 44.1
CCN(C(=O)c1cccc2c1OCO2)c1ccccc1 : 55.9
O=C(Cc1ccccn1)N1CCN2C[C@H](OCCN3CCCC3)C[C@H]2C1 : 68.4
CCS(=O)(=O)c1ccc2c(c1)OCCO2 : 77.8
O=C(c1ccc(F)cc1)N1CCN2C[C@H](OCc3ccccn3)C[C@H]2C1 : -1.71
Cc1cnc(-c2nc(NC3CC3)ncc2-c2cc(C)no2)cn1 : 8.72
O=C(c1cccnc1)N1CCN2C[C@H](Oc3cncnc3)C[C@H]2C1 : 55.5
O=C(c1ccco1)N1CCN2C[C@H](Oc3cncnc3)C[C@H]2C1 : -5.63
CC(C)NC(=O)N1CCC2(CC(=O)N(c3cccc(C#N)c3)C2)C1 (stereo not given) : 66.5
CCN(Cc1ccoc1)C(=O)NC1CCN(C(=O)OC(C)(C)C)C1 (stereo not given) : 1.93
COc1ccc(-c2cnc3n2CCNC32CCN(S(C)(=O)=O)CC2)cc1 : 57.1
O=C(C1CC1)N1CCCN(c2ncnc3c2CCNCC3)CC1 : -20.6
O=C(c1ccncc1)N1CCN2C[C@H](Oc3cncnc3)C[C@H]2C1 : 23.3
O=C(c1ccnnc1)N1CCN2C[C@H](OCc3ccccn3)C[C@H]2C1 : -5.05
CCS(=O)(=O)c1ccc2c(c1)OCCCO2 : 55.9
Cc1cc(C)n(CC2CCN(CC(O)CN3CCOCC3)CC2)n1 (stereo not given) : -5.22
CC(C)CCNC(=O)c1ccc(-n2cnc3ccccc3c2=O)cc1 : 26.8
O=C(Cc1cccc(F)c1)N1CCN2C[C@H](Oc3cncnc3)C[C@H]2C1 : 39.4
Cc1ccc(O[C@@H]2C[C@H]3CN(C(=O)c4cnccn4)CCN3C2)cc1 : -28.8
CS(=O)(=O)N1CCC2(CC1)NCCn1c(-c3ccccc3)cnc12 : -0.554
Cc1cnc(CN(Cc2ccccc2)CC2CCOCC2)cn1 : 14.2
CCSCCC(=O)NS(=O)(=O)c1ccc2c(c1)OCCO2 : 41.9
CC(C)CCNC(=O)c1ccc2c(=O)n(-c3ccccc3)cnc2c1 : 1.8
O=C([C@H]1C[C@H]2CN(c3ncc(F)cn3)C[C@@H]1O2)N1CCOCC1 : 17.7
O=C1C[C@H]2[C@@H](CCN2C(=O)Cc2cccs2)N1Cc1ccncc1 : 37.1
CC(C)CC(=O)NS(=O)(=O)c1ccc2c(c1)OCCCO2 : -7.81
O=C(Cc1ccccc1F)N1CCN(C(=O)c2ccoc2)CC1 : 16.6
COc1cc(C(=O)N2CC3(CCNCC3)c3cc(Cl)ccc32)ccn1 : -17.1
Cc1cccc(N2CC3(CCN(C(=O)NC(C)C)C3)CC2=O)c1 (stereo not given) : 14.6
O=C(C1CC1)N1CCc2c(ncnc2N2CCN3CCCC3C2)C1 (stereo not given) : 46.6
O=C(Cc1ccccn1)N1CCN2C[C@H](Oc3cncnc3)C[C@H]2C1 : 67.2
CCN(C)S(=O)(=O)NCC(C)(O)c1ccsc1 (stereo not given) : 31.7
COCCNC(=O)c1sc2ccccc2c1C1CCC(CN)CC1 (stereo not given) : 3.48
CC(Cn1cccn1)NC(=O)c1ccsc1 (stereo not given) : 15.7
O=C(COCc1nc(-c2ccncc2)no1)N1CCCCC1 : -19.7
O=C(c1ccnnc1)N1CCN2C[C@H](Oc3cccnc3)C[C@H]2C1 : -10.2
O=C(Cc1ccccn1)N1CCN2C[C@H](Oc3cccc(F)c3)C[C@H]2C1 : 33
CSCCC(=O)N1CCc2c(ncnc2N2CCOCC2)C1 : -103
CCN(Cc1c(C)nn(CC)c1C)S(=O)(=O)c1cnn(C)c1C : 38.3
O=C(Nc1cnc(N2CCOCC2)nc1)c1ccc(C(F)(F)F)cc1 : 77.9
Cn1ccnc(Nc2ccc3c(c2)CCN3C(=O)c2ccoc2)c1=O : -21.6
Cc1cccc(CN2Cc3[nH]nc(COCCO)c3C2)n1 : 29
COc1ccc(CNc2ncc(-c3cc(C)no3)c(C(C)C)n2)cc1 : -5.71
CCN1CCN(c2ncnc3c2CCN(C(=O)C2CC2)C3)CC1 : 61.1

The measurements presented in this section are drawn from ChEMBL document CHEMBL4513216.
